molecular target: USP1/UAF1 (Homo sapiens (Human)); assay: USP1/UAF1 activity, ubiquitin-rhodamine110-glycine (Ub-Rho) assay; assay type: biochemical; settings: 0.1 nM USP1/UAF1, 100 nM Ub-Rho, 120 minutes; read-out: IC50 (nM), inhibitory effects on USP1/UAF1 activity
measurement label: log10 of IC50 (log10 of the value in nM)
Recall that a logarithmic scale is used here: each number is log10 of IC50 in nM.

Consider the worked cases shown below.
COc1ncnc(C2CC2)c1-c1nc2c(Cc3ccc(-c4nc(C(F)(F)F)cn4C)cc3)nccn2n1 ... 1.05
COc1ncnc(C2CCC2)c1-c1nc2c(Cc3ccc(-c4nc(C(F)(F)F)cn4C)cc3)cccn2n1 ... 1.41
CCn1cc(C(F)(F)F)nc1-c1c(F)cc(Cc2cccn3nc(-c4c(OC)ncnc4C4CC4)nc23)cc1OC ... 1.60
COc1ncnc(C2CC2)c1-c1nc2cccc(Cc3ccc(-c4nc(C(F)(F)F)cn4C)c(F)c3)n2n1 ... 0.74
COc1ncnc(C2CC2)c1-c1nc2c(Cc3ccc(-c4nc(C(F)(F)F)cn4C)c(F)c3)nccn2n1 ... 1.62
COc1ncnc(C2CC2)c1-c1nc2c(Cc3ccc(-c4nc(C(F)(F)F)cn4C)c(F)c3)cncn2n1 ... 1.98

Attention now shifts to the item below.
Endpoint output: log10 of IC50 of CCn1cc(C(F)(F)F)nc1-c1c(F)cc(Cc2cncn3nc(-c4c(OC)ncnc4C4CC4)nc23)cc1F . Value?
2.38

---

target: USP1/UAF1 (Homo sapiens (Human)); test: USP1/UAF1 activity, ubiquitin-rhodamine110-glycine (Ub-Rho) assay; format: biochemical; settings: 0.1 nM USP1/UAF1, 100 nM Ub-Rho, 120 minutes; read-out: IC50 (nM), inhibitory effects on USP1/UAF1 activity
The compounds listed here are annotated with their IC50.
Field: numeric (nM). Do not append units.

CCn1cc(C(F)(F)F)nc1-c1c(F)cc(Cc2nccc3nc(-c4c(OC)ncnc4C4CC4)nn23)cc1F [Example 42] ... 732

IC50 of COc1ncnc(C2CC2)c1-c1nc2c(Cc3ccc(-c4nc(C(F)(F)F)cn4C)cc3)cccn2n1 [Example 5] on USP1/UAF1 (Homo sapiens (Human))?
39.1

IC50 of COc1ncnc(C2CC2)c1-c1nc2cccc(Cc3ccc(-c4nc(C(F)(F)F)cn4C)cc3)n2n1 [Example 14] on USP1/UAF1 (Homo sapiens (Human))?
30.6

---

biological target: USP1/UAF1 (Homo sapiens (Human), UniProt O94782); assay: USP1/UAF1 activity, ubiquitin-rhodamine110-glycine (Ub-Rho) assay; type: biochemical; conditions: 0.1 nM USP1/UAF1, 100 nM Ub-Rho, 120 minutes; read-out: IC50 (nM), inhibitory effects on USP1/UAF1 activity
Sequence (O94782 whole entry): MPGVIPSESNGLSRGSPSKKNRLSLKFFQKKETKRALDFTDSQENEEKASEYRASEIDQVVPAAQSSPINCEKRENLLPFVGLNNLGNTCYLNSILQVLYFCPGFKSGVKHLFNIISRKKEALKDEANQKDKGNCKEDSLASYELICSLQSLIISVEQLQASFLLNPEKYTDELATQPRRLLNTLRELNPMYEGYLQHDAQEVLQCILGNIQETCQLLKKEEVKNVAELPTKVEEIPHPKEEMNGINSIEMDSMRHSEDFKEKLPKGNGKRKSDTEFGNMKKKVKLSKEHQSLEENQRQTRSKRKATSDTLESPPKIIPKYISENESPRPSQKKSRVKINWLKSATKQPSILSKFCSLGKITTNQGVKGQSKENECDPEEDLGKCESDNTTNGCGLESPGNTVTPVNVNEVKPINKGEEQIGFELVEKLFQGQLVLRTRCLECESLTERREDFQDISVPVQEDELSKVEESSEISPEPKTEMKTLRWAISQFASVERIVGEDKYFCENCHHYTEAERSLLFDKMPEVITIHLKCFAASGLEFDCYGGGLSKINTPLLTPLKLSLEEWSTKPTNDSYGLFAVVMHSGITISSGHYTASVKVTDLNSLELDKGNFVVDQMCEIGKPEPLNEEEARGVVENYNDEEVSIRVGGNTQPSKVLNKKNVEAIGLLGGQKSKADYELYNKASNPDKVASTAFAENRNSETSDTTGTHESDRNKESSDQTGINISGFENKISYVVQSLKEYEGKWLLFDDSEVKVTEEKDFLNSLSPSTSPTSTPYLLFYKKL
Sequence (Q8TAF3 whole entry partner): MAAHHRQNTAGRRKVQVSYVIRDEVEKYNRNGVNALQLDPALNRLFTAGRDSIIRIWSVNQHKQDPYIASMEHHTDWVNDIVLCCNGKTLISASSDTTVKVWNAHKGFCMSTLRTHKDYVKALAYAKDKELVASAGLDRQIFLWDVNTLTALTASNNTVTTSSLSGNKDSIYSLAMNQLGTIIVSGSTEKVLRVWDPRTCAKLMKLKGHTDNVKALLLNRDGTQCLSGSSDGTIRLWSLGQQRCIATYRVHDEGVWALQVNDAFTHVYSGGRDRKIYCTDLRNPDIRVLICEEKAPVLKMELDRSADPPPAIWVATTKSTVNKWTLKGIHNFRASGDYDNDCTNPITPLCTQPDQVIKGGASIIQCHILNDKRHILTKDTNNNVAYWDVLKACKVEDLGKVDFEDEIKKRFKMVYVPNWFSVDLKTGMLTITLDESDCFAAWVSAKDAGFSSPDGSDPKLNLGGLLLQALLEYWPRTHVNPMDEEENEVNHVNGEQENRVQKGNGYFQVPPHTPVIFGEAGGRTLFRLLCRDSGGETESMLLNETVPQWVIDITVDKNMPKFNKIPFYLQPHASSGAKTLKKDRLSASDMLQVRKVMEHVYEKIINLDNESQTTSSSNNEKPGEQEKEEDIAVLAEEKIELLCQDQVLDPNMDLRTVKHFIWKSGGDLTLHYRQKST
measurement label: IC50 (nM)
Field: numeric (nM). Do not append units.

Consider the worked cases shown below.
COc1ncnc(C2CC2)c1-c1nc2c(Cc3ccc(-c4nc(C(F)(F)F)cn4C)c(F)c3)cccn2n1 [Example 25] ... 11.6
COc1ncnc(C2CC2)c1-c1nc2ccnc(Cc3ccc(-c4nc(C(F)(F)F)cn4C4CC4)cc3)n2n1 [Example 40] ... 19.9
CCn1cc(C(F)(F)F)nc1-c1c(F)cc(Cc2cncc3nc(-c4c(OC)ncnc4C4CC4)nn23)cc1F [Example 45] ... 99.7

Attention now shifts to the item below.
Endpoint output: IC50 of COc1ncnc(C2CC2)c1-c1nc2c(Cc3ccc(-c4nc(C(F)(F)F)cn4C4CC4)cc3)cccn2n1 [Example 24] . Value?
11.8
